Provide the reported NanoBRET Fold Response of each item.
# SYSTEM_TESTED: P2RY8 (Homo sapiens, UniProt Q86VZ1)
# Construct: purchased Promega (in-house HiBiT-GPCR construct library, NanoBRET)
# Sequence (Q86VZ1 whole entry): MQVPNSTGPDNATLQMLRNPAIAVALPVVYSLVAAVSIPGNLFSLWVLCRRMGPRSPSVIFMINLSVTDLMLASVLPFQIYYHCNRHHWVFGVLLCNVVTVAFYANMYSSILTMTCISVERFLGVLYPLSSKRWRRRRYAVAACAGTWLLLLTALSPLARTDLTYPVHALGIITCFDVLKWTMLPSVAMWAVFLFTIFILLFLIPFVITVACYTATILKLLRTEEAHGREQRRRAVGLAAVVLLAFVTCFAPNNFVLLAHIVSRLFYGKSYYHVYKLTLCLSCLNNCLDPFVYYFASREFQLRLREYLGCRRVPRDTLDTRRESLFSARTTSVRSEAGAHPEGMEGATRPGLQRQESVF
# ASSAY_PROCEDURE: NanoBRET screen HiBiT-P2RY8 in HEK293
# Assay type: binding
# STUDY_CONDITIONS: P2RY8; tracer 1μM
# Experimental: Each tracer candidate was screened across the entire library of HiBiT-GPCR constructs using NanoBRET as the detection modality. As depicted in Figure 4A, the specificity of interactions was evaluated through decrease in BRET due to competitive displacement of a bound tracer by excess parental compound. Each tracer was analyzed for binding to each HiBiT-GPCR fusion in the absence and in the presence of competing parental compound. […]
Note: the reply should be a number with no unit written.

I am curious: what NanoBRET Fold Response value has been reported for CC(C)N(CC[C@H](c1ccccc1)c1cc(CCNC(=O)CCOCCOCCOCCOCCNC(=O)CCc2ccc3n2[B-](F)(F)[N+]2=C(c4ccc[nH]4)C=CC2=C3)ccc1O)C(C)C [Tolterodine-2-NB590] ?
1.22

Could you share which NanoBRET Fold Response value was measured for CCCn1c(=O)c2[nH]c(-c3ccc(OCC(=O)NCCNC(=O)CCOCCNC(=O)c4ccc(CNC(=O)CCc5ccc6n5[B-](F)(F)[N+]5=C(c7ccc[nH]7)C=CC5=C6)cc4)cc3)nc2n(CCC)c1=O [XAC-3-NB590] ?
0.83

# lookup: NanoBRET Fold Response of O=C(CCOCCOCCOCCOCCNC(=O)CCc1ccc2n1[B-](F)(F)[N+]1=C(c3ccc[nH]3)C=CC1=C2)NCCCN1CCN(C2=Nc3ccccc3Oc3ccc(Cl)cc32)CC1 [Loxapine-a-2-NB590]
0.87

What NanoBRET Fold Response value was documented for this compound, Cc1cc2c(s1)Nc1ccccc1N=C2N1CCN(CCCNC(=O)CCOCCOCCOCCOCCNC(=O)CCc2ccc3n2[B-](F)(F)[N+]2=C(c4ccc[nH]4)C=CC2=C3)CC1 [Olanzapine-a-2-NB590] ?
1.13

// returns reported NanoBRET Fold Response for input Cc1nc2n(c(=O)c1CCN1CCC(c3noc4cc(F)ccc34)CC1)CCCC2OC(=O)NCCOCCOCCOCCOCCNC(=O)CCc1ccc2n1[B-](F)(F)[N+]1=C(c3ccc[nH]3)C=CC1=C2 (centres unmarked) [Risperidone-2-NB590]
0.96

Which measured NanoBRET Fold Response value corresponds to N#CN=C(NCCCOc1cccc(CN2CCCCC2)c1)NCCNC(=O)CCOCCOCCOCCOCCNC(=O)CCc1ccc2n1[B-](F)(F)[N+]1=C(c3ccc[nH]3)C=CC1=C2 [Aminopotentidine-2-NB590] ?
1.02

// NanoBRET Fold Response lookup, key: COc1ccccc1N1CCN(CCCCN2C(=O)c3ccc(CNC(=O)CCOCCNC(=O)c4ccc(CNC(=O)CCc5ccc6n5[B-](F)(F)[N+]5=C(c7ccc[nH]7)C=CC5=C6)cc4)cc3C2=O)CC1 [NAN-190-3-NB590]
1.12

Which NanoBRET Fold Response value belongs to COc1ccccc1N1CCN(CCCCN2C(=O)c3ccc(CNC(=O)CCOCCOCCOCCOCCNC(=O)CCc4ccc5n4[B-](F)(F)[N+]4=C(c6ccc[nH]6)C=CC4=C5)cc3C2=O)CC1 [NAN-190-2-NB590] ?
1.14

Which value of NanoBRET Fold Response has been reported for O=C(CCc1ccc2n1[B-](F)(F)[N+]1=C(c3ccc[nH]3)C=CC1=C2)NCCOCCOCCNC(=O)OCCOCCN1CCN(C2=Nc3ccccc3Sc3ccccc32)CC1 [Quetiapine-a-2-NB590] in the records?
0.88

Find the recorded NanoBRET Fold Response belonging to O=C(CCc1ccc2n1[B-](F)(F)[N+]1=C(c3ccc[nH]3)C=CC1=C2)NCc1ccc(C(=O)NCCOCCC(=O)N[C@@H]2CC[C@@]3(O)[C@H]4Cc5ccc(O)c6c5[C@@]3(CCN4CC3CC3)[C@H]2O6)cc1 [Naltrexone-3-NB590] and report it.
0.47

Can you look up the measured NanoBRET Fold Response of CC(C)N(CC[C@H](c1ccccc1)c1cc(CCNC(=O)c2ccc(CNC(=O)CCc3ccc4n3[B-](F)(F)[N+]3=C(c5ccc[nH]5)C=CC3=C4)cc2)ccc1O)C(C)C [Tolterodine-BZ-NB590] for me?
1.01

Reference for the values: paper PMC8151276
